Test system: carrageenan-induced edema
Assay Overview: Inhibitory effect on carrageenan-induced edema
Assay type: in vivo, Wistar male rats
Conditions: Rattus norvegicus, po, read-out: ED50 p.o.
Reported log10 ED50 values for the following compounds.
The base-10 logarithm of ED50, taken with ED50 in mg/kg, is what appears here.

> print(dat)
                                   compound  reported.result
1  COc1ccc2c(c1)c(CC(=O)O)c(C)n2C(=O)c1ccc(Cl)cc1 [indomethacin, reference compound]             0.74

Tell us which log10 ED50 value is on record for CCC(=O)OCCOC(=O)C(C)c1ccc(-c2ccccc2)c(F)c1 (centres unmarked)
-0.15

Tell us which log10 ED50 value is on record for CC(C(=O)O)c1ccc(-c2ccccc2)c(F)c1 (centres unmarked) [FP, 2-(2-fluoro-4-biphenylyl)propionic acid, reference compound]
-0.10

Tell us which log10 ED50 value is on record for CC(C)=CC(=O)OCOC(=O)C(C)c1ccc(-c2ccccc2)c(F)c1 (centres unmarked)
-0.30

Tell us which log10 ED50 value is on record for CC(C(=O)OCOC(=O)C(C)(C)C)c1ccc(-c2ccccc2)c(F)c1 (centres unmarked)
-0.22

Tell us which log10 ED50 value is on record for CCCCCCCCCCCCCCCC(=O)OCOC(=O)C(C)c1ccc(-c2ccccc2)c(F)c1 (centres unmarked)
0.18

Tell us which log10 ED50 value is on record for CC(C)=CCCC(C)=CC(=O)OCCOC(=O)C(C)c1ccc(-c2ccccc2)c(F)c1 (centres unmarked)
-0.05

Tell us which log10 ED50 value is on record for CC(C)C(=O)OCOC(=O)C(C)c1ccc(-c2ccccc2)c(F)c1 (centres unmarked)
-0.22
